- method: Tmax in C57 Black mouse muscle at 10 mg/kg, iv
- Format: ADME, organism-based, Muscle tissue
readout: Tmax
Mention the unit after the number when you answer.

-- ask # return recorded Tmax for input O=C(CCCc1cccs1)N1CCN(c2ccc(C(F)(F)F)cc2)CC1
-- reply 1.8 min

----------
- method: Tmax in C57 Black mouse liver at 10 mg/kg, iv
- Format: ADME, organism-based
readout: Tmax (min)
# output: bare number, implied unit min

-- ask # return recorded Tmax for input O=C(CCCc1cccs1)N1CCN(c2ccc(C(F)(F)F)cc2)CC1
-- reply 1.8

----------
- method: AUCall in C57 Black mouse spleen at 10 mg/kg, po
- Type: ADME, organism-based
- Design: dose 10 mg/kg
readout: AUC (ng·h/mL)
# output: bare number, implied unit ng·h/mL

-- ask # return recorded AUC for input O=C(CCCc1cccs1)N1CCN(c2ccc(C(F)(F)F)cc2)CC1
-- reply 1260
